Some binders, each annotated with its measured peptide exchange yield.
# TARGET SYSTEM: T1, HLA-A*02:01 (human)
# T1 construct: monomers captured on streptavidin plates; also called MHC class I
# EXPERIMENTAL PROTOCOL: UV peptide exchange ELISA
EXPERIMENTAL ENDPOINT: peptide exchange yield

# BINDER, RECORDED RESULT
data = [
    ("YLLPESVDL", "50 to 75%"),
    ("YLPAVFEEV", "50 to 75%"),
    ("KLAKQPETV", "50 to 75%"),
    ("KLYSVVSQL", "20 to 50%"),
    ("SMAPGLVIQAV", "50 to 75%"),
    ("NLMEMVAQL", "20 to 50%"),
    ("ALDEYTSEL", "≥ 75%"),
    ("VLFDDELLMV", "50 to 75%"),
]
